Target: Plasminogen (Homo sapiens)
Sequence (P00747 97-580 limits assumed): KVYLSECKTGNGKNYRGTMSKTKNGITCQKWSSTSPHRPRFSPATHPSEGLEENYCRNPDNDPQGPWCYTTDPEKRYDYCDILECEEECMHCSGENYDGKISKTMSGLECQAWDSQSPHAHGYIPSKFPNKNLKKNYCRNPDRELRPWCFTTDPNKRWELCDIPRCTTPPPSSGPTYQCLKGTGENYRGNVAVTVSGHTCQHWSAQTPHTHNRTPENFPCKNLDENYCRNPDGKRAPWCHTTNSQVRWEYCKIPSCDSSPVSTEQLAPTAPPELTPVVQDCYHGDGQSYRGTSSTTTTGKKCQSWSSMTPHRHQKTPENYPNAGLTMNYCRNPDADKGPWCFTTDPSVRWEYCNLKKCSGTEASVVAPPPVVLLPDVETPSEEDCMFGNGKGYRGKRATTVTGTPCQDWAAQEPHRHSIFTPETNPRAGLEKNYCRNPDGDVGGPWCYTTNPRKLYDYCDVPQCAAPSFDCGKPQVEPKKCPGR
Sequence (P00747 581-810 limits assumed): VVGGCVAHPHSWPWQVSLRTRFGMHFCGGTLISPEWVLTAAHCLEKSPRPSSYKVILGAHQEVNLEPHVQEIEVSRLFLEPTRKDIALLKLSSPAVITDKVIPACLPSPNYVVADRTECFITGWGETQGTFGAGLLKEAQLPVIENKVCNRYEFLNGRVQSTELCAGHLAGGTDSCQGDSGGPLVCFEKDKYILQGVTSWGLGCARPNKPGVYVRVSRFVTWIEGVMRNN
Assay: Inhibition of Human Serine Protease Plasmin.
pKi: −log10 of the molar value.
# if value of pKi reaches 5, tag label 1; if it stays below, tag label 0

Answer whether pKi of N=C(N)c1ccc2nc(-c3cccc([N+](=O)[O-])c3O)[nH]c2c1 is greater than or equal to 5. label 0

Check if pKi >= 5 (inclusive). Item: N=C(N)c1ccc2nc(-c3ccccc3)[nH]c2c1 label 0

Has N=C(N)c1ccc2[nH]c(-c3cccc(-c4ccccc4)c3)cc2c1 a recorded pKi greater than or equal to 5? label 0

Is pKi at least 5? Consider N=C(N)c1ccc2[nH]c(-c3cccc(F)c3O)nc2c1 label 1

Form field: pKi at least 5? Entry: Cc1cc(Br)c(O)c(-c2cc3cc(C(=N)N)ccc3[nH]2)c1 label 1

Is pKi for COc1ccc(O)c(-c2nc3ccc(C(=N)N)cc3[nH]2)c1 at or above 5? label 0

Does pKi meet or surpass 5 for Cc1ccc(-c2nc3ccc(C(=N)N)cc3[nH]2)c(O)c1 ? label 0

Evaluate N=C(N)c1ccc2nc(-c3ccccc3O)[nH]c2c1 : pKi at minimum 5? label 0

I'd appreciate it if you could say whether N=C(N)c1ccc2nc(-c3cc(Br)ccc3O)[nH]c2c1 has pKi at least equal to 5. label 0
